# Tested on: 60 cancer cell lines (NCI 60 cancer cell line series)
# measurement.protocol: NCI-DTP in vitro cancer screen, sulforhodamine B (SRB) growth inhibition, 48 hour exposure
# Format: cell-based, human
# assay.context: Leukemia CCRF-CEM(I) (CL7003)
Structures can show the parent of a compound that is named as a salt.
Exercise: state measured classification of cell line as Low(1), Medium(2) or High(3) sensitivity to compound for each of the compounds provided.

Some compounds with recorded classification of cell line as Low(1), Medium(2) or High(3) sensitivity to compound:
N[C@@H](Cc1ccc(N(CCCl)CCCl)cc1)C(=O)O : 3
CC[C@]1(O)C[C@H]2CN(CCc3c([nH]c4ccccc34)[C@@](C(=O)OC)(c3cc4c(cc3OC)N(C=O)[C@H]3[C@@](O)(C(=O)OC)[C@H](OC(C)=O)[C@]5(CC)C=CCN6CC[C@]43[C@@H]65)C2)C1 [Vincristine sulfate] : 3
O=c1[nH]cc(F)c(=O)[nH]1 : 2
OC[C@H]1O[C@@H](n2cnc3c2N=CNC[C@H]3O)C[C@@H]1O : 2
CC[C@]1(O)C[C@@H]2CN(CCc3c([nH]c4ccccc34)[C@@](C(=O)OC)(c3cc4c(cc3OC)N(C)[C@H]3[C@@](O)(C(=O)OC)[C@H](OC(C)=O)[C@]5(CC)C=CCN6CC[C@]43[C@@H]65)C2)C1 [Vinblastine sulfate] : 2
COc1cc([C@@H]2c3cc4c(cc3[C@@H](O[C@@H]3O[C@@H]5CO[C@@H](C)O[C@H]5[C@H](O)[C@H]3O)[C@H]3COC(=O)[C@H]23)OCO4)cc(OC)c1O [Etoposide] : 2
NC(=O)NO [Hydroxyurea] : 3
COc1cccc2c1C(=O)c1c(O)c3c(c(O)c1C2=O)C[C@@](O)(C(=O)CO)C[C@@H]3O[C@H]1C[C@H](N)C[C@H](C)O1 : 2
CC[C@@]1(O)C(=O)OCc2c1cc1n(c2=O)Cc2cc3c(CN(C)C)c(O)ccc3nc2-1 : 3
COc1cccc2c1C(=O)c1c(O)c3c(c(O)c1C2=O)C[C@@](O)(C(C)=O)C[C@@H]3O[C@H]1C[C@H](N)[C@H](O)[C@H](C)O1 : 3

Please state classification of cell line as Low(1), Medium(2) or High(3) sensitivity to compound for every compound in the list that follows.
1. COc1cccc2c1C(=O)c1c(O)c3c(c(O)c1C2=O)C[C@@](O)(C(=O)CO)C[C@@H]3O[C@H]1C[C@H](N)[C@H](O)[C@H](C)O1
2. COc1cc([C@@H]2c3cc4c(cc3[C@@H](O[C@@H]3O[C@@H]5CO[C@@H](c6cccs6)O[C@H]5[C@H](O)[C@H]3O)[C@H]3COC(=O)[C@H]23)OCO4)cc(OC)c1O [Teniposide]
3. O=C1c2c(O)ccc(O)c2C(=O)c2c(NCCNCCO)ccc(NCCNCCO)c21
4. Sc1ncnc2nc[nH]c12

1: 3; 2: 3; 3: 3; 4: 3

* * *

# System: 60 cancer cell lines (NCI 60 cancer cell line series)
# measurement.protocol: NCI-DTP in vitro cancer screen, sulforhodamine B (SRB) growth inhibition, 48 hour exposure
# Format: cell-based, human
# Design: key: sensitivity class: 1 = Low, 2 = Medium, 3 = High
# assay.context: cell line Ovarian SK-OV-3, CL6011
Exercise: state measured sensitivity class Ovarian SK-OV-3 CL6011 for each of the compounds provided.

Some compounds with recorded sensitivity class Ovarian SK-OV-3 CL6011:
O=c1[nH]cc(F)c(=O)[nH]1 [5-Fluorouracil] : 1
CC[C@@]1(O)C(=O)OCc2c1cc1n(c2=O)Cc2cc3c(CN(C)C)c(O)ccc3nc2-1 [Topotecan] : 2
N[C@@H](Cc1ccc(N(CCCl)CCCl)cc1)C(=O)O [Melphalan] : 2
COc1cccc2c1C(=O)c1c(O)c3c(c(O)c1C2=O)C[C@@](O)(C(=O)CO)C[C@@H]3O[C@H]1C[C@H](N)C[C@H](C)O1 [Deoxydoxorubicin] : 2

Please state sensitivity class Ovarian SK-OV-3 CL6011 for every compound in the list that follows.
1. O=C1c2c(O)ccc(O)c2C(=O)c2c(NCCNCCO)ccc(NCCNCCO)c21 [Mitoxantrone]
2. Sc1ncnc2nc[nH]c12 [6-mercaptopurine]
3. COc1cccc2c1C(=O)c1c(O)c3c(c(O)c1C2=O)C[C@@](O)(C(=O)CO)C[C@@H]3O[C@H]1C[C@H](N)[C@H](O)[C@H](C)O1 [Adriamycin]
4. NC(=O)NO [Hydroxyurea]

1. 2
2. 3
3. 2
4. 1

* * *

# System: 60 cancer cell lines (NCI 60 cancer cell line series)
# measurement.protocol: NCI-DTP in vitro cancer screen, sulforhodamine B (SRB) growth inhibition, 48 hour exposure
# Format: cell-based, human
# assay.context: Breast MDA-MB-435 (CL5011)
Counter-ions that a name gives are not always drawn.
observation.type: classification of cell line as Low(1), Medium(2) or High(3) sensitivity to compound
One number for each entry.

O=c1[nH]cc(F)c(=O)[nH]1 [5-Fluorouracil] : 2
O=C1c2c(O)ccc(O)c2C(=O)c2c(NCCNCCO)ccc(NCCNCCO)c21 [Mitoxantrone] : 1
CC[C@]1(O)C[C@@H]2CN(CCc3c([nH]c4ccccc34)[C@@](C(=O)OC)(c3cc4c(cc3OC)N(C)[C@H]3[C@@](O)(C(=O)OC)[C@H](OC(C)=O)[C@]5(CC)C=CCN6CC[C@]43[C@@H]65)C2)C1 [Vinblastinesulfate] : 3
COc1cc([C@@H]2c3cc4c(cc3[C@@H](O[C@@H]3O[C@@H]5CO[C@@H](C)O[C@H]5[C@H](O)[C@H]3O)[C@H]3COC(=O)[C@H]23)OCO4)cc(OC)c1O [Etoposide] : 2
COc1cccc2c1C(=O)c1c(O)c3c(c(O)c1C2=O)C[C@@](O)(C(C)=O)C[C@@H]3O[C@H]1C[C@H](N)[C@H](O)[C@H](C)O1 [Daunorubicin] : 1
NC(=O)NO [Hydroxyurea] : 1

Please state classification of cell line as Low(1), Medium(2) or High(3) sensitivity to compound for every compound in the list that follows.
1. CC[C@]1(O)C[C@H]2CN(CCc3c([nH]c4ccccc34)[C@@](C(=O)OC)(c3cc4c(cc3OC)N(C=O)[C@H]3[C@@](O)(C(=O)OC)[C@H](OC(C)=O)[C@]5(CC)C=CCN6CC[C@]43[C@@H]65)C2)C1 [Vincristine sulfate]
2. COc1cc([C@@H]2c3cc4c(cc3[C@@H](O[C@@H]3O[C@@H]5CO[C@@H](c6cccs6)O[C@H]5[C@H](O)[C@H]3O)[C@H]3COC(=O)[C@H]23)OCO4)cc(OC)c1O [Teniposide]
3. COc1cccc2c1C(=O)c1c(O)c3c(c(O)c1C2=O)C[C@@](O)(C(=O)CO)C[C@@H]3O[C@H]1C[C@H](N)[C@H](O)[C@H](C)O1 [Adrlamycin]
4. Sc1ncnc2nc[nH]c12 [6-mercaptopurine]
5. CC[C@@]1(O)C(=O)OCc2c1cc1n(c2=O)Cc2cc3c(CN(C)C)c(O)ccc3nc2-1 [Topotecan]

[2, 2, 2, 2, 2]

* * *

# System: 60 cancer cell lines (NCI 60 cancer cell line series)
# measurement.protocol: NCI-DTP in vitro cancer screen, sulforhodamine B (SRB) growth inhibition, 48 hour exposure
# Assay type: cell-based, human
# assay.context: Melanoma SK-MEL-28 (CL10008)
Structures can show the parent of a compound that is named as a salt.
observation.type: classification of cell line as Low(1), Medium(2) or High(3) sensitivity to compound
One number for each entry.

CC[C@@]1(O)C(=O)OCc2c1cc1n(c2=O)Cc2cc3c(CN(C)C)c(O)ccc3nc2-1 [Topotecan] : 1

Please state classification of cell line as Low(1), Medium(2) or High(3) sensitivity to compound for every compound in the list that follows.
1. CC[C@]1(O)C[C@H]2CN(CCc3c([nH]c4ccccc34)[C@@](C(=O)OC)(c3cc4c(cc3OC)N(C=O)[C@H]3[C@@](O)(C(=O)OC)[C@H](OC(C)=O)[C@]5(CC)C=CCN6CC[C@]43[C@@H]65)C2)C1 [Vincristine sulfate]
2. N[C@@H](Cc1ccc(N(CCCl)CCCl)cc1)C(=O)O [Melphalan]
3. O=C1c2c(O)ccc(O)c2C(=O)c2c(NCCNCCO)ccc(NCCNCCO)c21 [Mitoxantrone]
4. Sc1ncnc2nc[nH]c12 [6-mercaptopurine]
5. NC(=O)NO [Hydroxyurea]

[1, 2, 1, 1, 1]

* * *

# Tested on: 60 cancer cell lines (NCI 60 cancer cell line series)
# measurement.protocol: NCI-DTP in vitro cancer screen, sulforhodamine B (SRB) growth inhibition, 48 hour exposure
# Assay type: cell-based, human
# assay.context: cell line Ovarian IGROV1, CL6010
Exercise: state measured sensitivity class Ovarian IGROV1 CL6010 for each of the molecules provided.
One number for each entry.

Some molecules with recorded sensitivity class Ovarian IGROV1 CL6010:
OC[C@H]1O[C@@H](n2cnc3c2N=CNC[C@H]3O)C[C@@H]1O [2′-deoxycoformycin] : 2
COc1cc([C@@H]2c3cc4c(cc3[C@@H](O[C@@H]3O[C@@H]5CO[C@@H](C)O[C@H]5[C@H](O)[C@H]3O)[C@H]3COC(=O)[C@H]23)OCO4)cc(OC)c1O [Etoposide] : 1

Next:
# O=c1[nH]cc(F)c(=O)[nH]1 [5-Fluorouracil] with 60 cancer cell lines (NCI 60 cancer cell line series): sensitivity class Ovarian IGROV1 CL6010 is 2

Hello, the source for this data is patent US20020051978A1, in case you need it.
